Tested on: A498
procedure_details: NCI tumour cell line growth inhibition, 48 h
Calls of active or inactive are those of the source. No stated cut-off is given here; in the data, active = GI50 up to about 1.1 µM and inactive = higher.
Listing of recorded GI50 by entry.

{"molecule": "COC(=O)/C=C/C(=O)Nc1cc(Cl)c(Cl)cc1CC(=O)N(C)[C@H]1CCCC[C@@H]1N1CCCC1", "GI50": "14.4 µM (inactive)"}
{"molecule": "Cc1ncc([N+](=O)[O-])n1CCNS(=O)(=O)CCCn1ccnc1[N+](=O)[O-]", "GI50": "> 100 µM (inactive)"}
{"molecule": "NC1=Nc2ccccc2Sc2ccccc21", "GI50": "84.9 µM (inactive)"}
{"molecule": "CC1=C(O)C(=O)c2ccccc2C1=O", "GI50": "> 100 µM (inactive)"}
{"molecule": "CN(Cc1cnc2nc(N)nc(N)c2n1)c1ccc(C(=O)NC(CCC(=O)O)C(=O)O)cc1C(F)(F)F (stereo not given)", "GI50": "< 0.01 µM (active)"}
{"molecule": "CC/C(=N/O)C(C)C(=O)CCC(=O)Nc1ccc(Cl)cc1 (stereo not given)", "GI50": "> 100 µM (inactive)"}
{"molecule": "C/C(=N/NC(N)=S)c1ccc2ccccc2c1", "GI50": "42.4 µM (inactive)"}
{"molecule": "COc1c(CC(=O)c2ccccc2)c2ccccc2n1C(C)=O", "GI50": "> 100 µM (inactive)"}
{"molecule": "O=C(N/C(=C\\c1cc(Cl)ccc1Cl)c1nc2c(O)nc(S)nc2[nH]1)c1ccccc1", "GI50": "> 100 µM (inactive)"}
{"molecule": "c1ccc(P(=Nc2ccccc2N=P(c2ccccc2)(c2ccccc2)c2ccccc2)(c2ccccc2)c2ccccc2)cc1", "GI50": "0.986 µM (active)"}
